FYI, the data here is from patent US4165371A.

System: morphine dependent monkeys
Procedure details: Physical dependence liability testing, overall evaluation
Format: in vivo, monkey
Conditions used: at doses tested
Procedure: Physical Dependence Liability testing was conducted on Compounds A, B, C and F of Table 1. For determining Single Dose Suppression (SDS) data monkeys, physically dependent on 3.0 mg/kg of morphine sulfte q6H, were withdrawn until abstinence signs of intermediate severity were present (12-14 hours). The coded drug was injected at this time by persons other than the observer. The monkeys were graded just prior to injection and at intervals of 1/2, 1, 2, 3, 4, 5 and 6 hours after injection. […]

Compound	Estimated Physical Dependence Capacity
C=CCN1CCC2CC(C1)c1ccccc12 (stereo not shown) [F]	None
c1ccc2c(c1)C1CCN(CC3CC3)CC2C1 (stereo not shown) [C]	None
